Test system: Leishmania donovani
PROTOCOL SUMMARY: Leishmania intramacrophage assay
Type: functional, organism-based
Design: scale not given: in the data most compounds retested in dose-response had high values
EXPERIMENTAL PARAMETERS: 30.3 µM; […]
The campaign covered roughly 69,000 compounds. About 1,000 (1.4%) showed an effect of 50% or more. The list comes from a sample in which strong results are over-represented; it also holds close analogues and randomly drawn compounds.
ASSAY METRIC: Percent Effect (%)

• Cc1ccc(S(=O)(=O)N2CC(C)Oc3ncccc32)c(C)c1 (stereo not given) = 55.69
• CN(C)C(=O)COC1COC2(CCN(c3ncccn3)CC2)C1 (stereo not given) = 64.89
• COc1ccc(OCc2noc(CN(C)C3CCS(=O)(=O)C3)n2)cc1 (stereo not given) = 17.47
• OC1CCN(c2ccnc(NCCc3ccccc3Cl)n2)CC1 = -1.281
• CC1CN(S(=O)(=O)c2ccc(F)cc2F)c2cccnc2O1 (stereo not given) = 30.4

Value source: ChEMBL document CHEMBL3988442
